observation.type: melting point (°C)
Give bare numbers, in °C.

Consider the worked cases shown below.
{"compound.structure.string": "CCCN(C(=O)CCc1nc(-c2ccc(OC)cc2)no1)c1cccc(Cl)c1", "measurement.units": "°C", "melting point": 85}
{"compound.structure.string": "COc1ccc(-c2noc(CCC(=O)N(CCO)c3cccc(Cl)c3)n2)cc1", "measurement.units": "°C", "melting point": 95}
{"compound.structure.string": "COc1ccc(-c2noc(CCC(=O)Nc3cc(Cl)ccn3)n2)cc1", "measurement.units": "°C", "melting point": 167}
{"compound.structure.string": "CCCN(C(=O)Cc1nc(-c2ccc(OC)cc2)no1)c1cccc(Cl)c1", "measurement.units": "°C", "melting point": 108}

*Q* Supply reported melting point belonging to this compound: COc1ccc(-c2noc(CCC(=O)N(CCCO)c3cccc(Cl)c3)n2)cc1
*A* 80

---

target: GAβ-dependent amyloid fibril formation (Human Aβ1-40 + GM1-containing liposome) (Homo sapiens); construct: Human Aβ1-40 (cat. #4307-v, prepared by Peptide Institute); purchased Peptide Institute 4307-v; assay: Thioflavin T (ThT) assay of GAβ-dependent amyloid fibril formation (Aβ1-40 with GM1-containing liposome); type: biochemical; conditions: @25 μM; read-out: ThT Inhibitory activity (% inhibition)
Provide the reported inhibition at 25 µM of each item.
Please provide the amount together with its unit, number first.

{"molecule": "O=C(N[C@@H](CO)c1nc(-c2ccc(C(F)(F)F)cc2)no1)c1ccc(F)cc1 [Compound 133]", "observed.result": "88%"}

Record inhibition at 25 µM per entry; entries follow.
1. O=C(N[C@@H](CO)c1nc(-c2ccc(OC(F)(F)F)cc2)no1)c1ccc(F)cc1 [Compound 69]
2. O=C1CC(c2nc(-c3ccc4c(c3)OC(F)(F)O4)no2)CN1c1ccc(Cl)cc1 (centres unmarked) [Compound 32]
3. O=C(N[C@@H](CO)c1nc(-c2cccs2)no1)c1ccc(F)cc1 [Compound 178]

*A*
["87%", "86%", "61%"]

---

Provide the reported inhibition at 25 µM of each item.
Biological target: GAβ-dependent amyloid fibril formation (Human Aβ1-40 + GM1-containing liposome) (Homo sapiens, UniProt P05067)
Construct: Human Aβ1-40 (cat. #4307-v, prepared by Peptide Institute); purchased Peptide Institute 4307-v
Sequence (P05067 672-711 limits assumed): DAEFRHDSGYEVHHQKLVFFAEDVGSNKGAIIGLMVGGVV
Experiment: Thioflavin T (ThT) assay of GAβ-dependent amyloid fibril formation (Aβ1-40 with GM1-containing liposome)
Assay type: biochemical
Conditions: inhibition rate against amyloid fibril formation, final concentration of the compound 25 μM; read-out: Inhibitory activity ABC evaluation
Protocol: <3. Evaluation of the Compounds Based on the Inhibitory Activity Against Amyloid Fibril Formation in Thioflabin T (ThT) Assay> Inhibitory activity against GAβ-dependent amyloid fibril formation of the above compounds 1 to 133 and 142 to 267 were evaluated in ThT assay. (1) Preparation of Aβ Solution […] The fluorescence intensity of ThT indicates the degree of amyloid fibrils formation. […]
Where a name gives a salt, the structure may show the parent alone.

{"molecule": "O=C(c1ccc(Cl)cc1)N1CC(O)CC1c1nc(-c2ccc(OC(F)(F)F)cc2)no1 (stereo in doubt)", "observed.result": "40 to 80%"}
{"molecule": "O=C(N[C@@H](CO)c1nc(-c2ccc(C3(F)COC3)cc2)no1)c1ccc(F)cc1", "observed.result": "40 to 80%"}
{"molecule": "CS(=O)(=O)Nc1ccc(-c2nnc([C@@H](N)Cc3c[nH]c4ccccc34)o2)cc1 [Compound 111, hydrochloride]", "observed.result": "< 40%"}
{"molecule": "COCCCNC(=O)c1ccc(-c2noc([C@H](CO)NC(=O)c3ccccc3)n2)cc1", "observed.result": "40 to 80%"}
{"molecule": "COc1ccc(-c2noc([C@H](CO)NC(=O)c3ccc(Cl)cc3)n2)cc1", "observed.result": "> 80%"}
{"molecule": "O=C1CC(c2ncc(-c3ccc(OC(F)(F)F)cc3)[nH]2)CN1c1ccc(Cl)cc1 (centres unmarked)", "observed.result": "< 40%"}

Record inhibition at 25 µM per entry; entries follow.
1. O=C1CC(c2nc(-c3cccc(OC(F)(F)F)c3)no2)CN1c1ccc(Cl)cc1 (centres unmarked)
2. O=C(N[C@@H](CO)c1nc(-c2c[nH]c3ccc(Br)cc23)no1)c1ccc(F)cc1

*A*
1. 40 to 80%
2. 40 to 80%

---

molecular target: GAβ-dependent amyloid fibril formation (Human Aβ1-40 + GM1-containing liposome) (Homo sapiens, UniProt P05067); construct: Human Aβ1-40 (cat. #4307-v, prepared by Peptide Institute); purchased Peptide Institute 4307-v; experiment: Thioflavin T (ThT) assay of GAβ-dependent amyloid fibril formation (Aβ1-40 with GM1-containing liposome); format: biochemical; settings: inhibition rate against amyloid fibril formation, final concentration of the compound 25 μM; read-out: Inhibitory activity ABC evaluation
observation.type: inhibition at 25 µM

Consider the worked cases shown below.
{"compound": "N#Cc1ccc(C(=O)N[C@@H](CO)c2nc(-c3ccc(O)c(F)c3)no2)cc1", "observed.result": "40 to 80%"}
{"compound": "O=C(N[C@@H](CO)c1nc(-c2cccc(C(F)(F)F)c2)no1)c1ccc(F)cc1", "observed.result": "> 80%"}
{"compound": "O=C(N[C@@H](CO)c1nc(-c2ccc(C(F)(F)F)cc2)no1)c1ccc(F)c(Cl)c1", "observed.result": "> 80%"}
{"compound": "O=C(N[C@@H](CO)c1nc(-c2ccc(C(F)(F)F)cc2)no1)C1CC(=O)N(c2ccc(Cl)cc2)C1 (some centres unmarked)", "observed.result": "40 to 80%"}
{"compound": "O=C(N[C@@H](CO)c1nc(-c2ccc(Cl)o2)no1)c1ccc(F)cc1", "observed.result": "< 40%"}

Record inhibition at 25 µM per entry; entries follow.
1. COc1ccc(-c2noc(CCC(=O)N(CCO)c3cccc(Cl)c3)n2)cc1
2. O=C1CC(c2nc(-c3ccc(O)cc3)no2)CN1c1ccc(Cl)cc1 (centres unmarked)
3. NC(Cc1c[nH]cn1)c1nc(-c2ccc(OC(F)(F)F)cc2)no1 (centres unmarked)

*A*
< 40%
40 to 80%
< 40%

---

Biological target: GAβ-dependent amyloid fibril formation (Human Aβ1-40 + GM1-containing liposome) (Homo sapiens)
Construct: Human Aβ1-40 (cat. #4307-v, prepared by Peptide Institute); purchased Peptide Institute 4307-v
Assay: Thioflavin T (ThT) assay of GAβ-dependent amyloid fibril formation (Aβ1-40 with GM1-containing liposome)
Assay type: biochemical
Settings: inhibition rate against amyloid fibril formation, final concentration of the compound 25 μM; read-out: Inhibitory activity ABC evaluation
Description: <3. Evaluation of the Compounds Based on the Inhibitory Activity Against Amyloid Fibril Formation in Thioflabin T (ThT) Assay> Inhibitory activity against GAβ-dependent amyloid fibril formation of the above compounds 1 to 133 and 142 to 267 were evaluated in ThT assay. (1) Preparation of Aβ Solution […] The fluorescence intensity of ThT indicates the degree of amyloid fibrils formation. […]
Provide the reported inhibition at 25 µM of each item.

Consider the worked cases shown below.
{"compound": "O=C(NC1(c2nc(-c3ccc(OC(F)(F)F)cc3)no2)CCCC1)c1cccc(Cl)c1", "inhibition at 25 µM": "< 40%"}
{"compound": "O=C1CC(c2nc(-c3ccc(OC(F)(F)F)cc3)no2)CN1Cc1ccc(Cl)cc1 (stereo not shown)", "inhibition at 25 µM": "40 to 80%"}
{"compound": "CNCC(NC(=O)c1ccc(Cl)cc1)c1nnc(-c2ccc(OC(F)(F)F)cc2)o1 (stereo not shown)", "inhibition at 25 µM": "40 to 80%"}
{"compound": "O=C(c1ccc(Cl)cc1)N1CC(c2nc(-c3ccc(OC(F)(F)F)cc3)no2)C1", "inhibition at 25 µM": "40 to 80%"}

Record inhibition at 25 µM per entry; entries follow.
1. O=C(N[C@@H](CO)c1nc(-c2cccs2)no1)c1ccc(F)cc1
2. O=C1CC(c2nc(-c3ccc4c(c3)OC(F)(F)O4)no2)CN1c1ccc(Cl)cc1 (stereo not shown)
3. O=C(O)C[C@H](NC(=O)c1ccc(Cl)cc1)c1nc(-c2ccc(OC(F)(F)F)cc2)no1
4. O=C1CC(c2nc(-c3ccncc3)no2)CN1c1ccc(Cl)cc1 (stereo not shown)
5. O=C(N[C@@H](CO)c1nnc(-c2ccc(OC(F)(F)F)cc2)o1)c1ccc(F)cc1
6. O=C(N[C@@H](CO)c1nnc(-c2ccc(OC(F)(F)F)cc2)o1)c1ccc(Cl)cc1
7. CC(=O)c1ccc(-c2noc([C@H](CO)NC(=O)c3ccccc3)n2)cc1

*A*
["40 to 80%", "> 80%", "40 to 80%", "< 40%", "40 to 80%", "40 to 80%", "40 to 80%"]

Record inhibition at 25 µM per entry; entries follow.
1. O=C(N[C@@H](CO)c1nc(-c2ccc(C(=O)C(F)(F)F)cc2)no1)c1ccc(F)cc1
2. CN(C)c1ccc(C(=O)N[C@@H](CO)c2nc(-c3ccc(C(F)(F)F)cc3)no2)cc1
3. O=C(N[C@@H](CO)c1nc(-c2ccc(OC(F)(F)F)cc2)no1)c1ccc(Cl)cc1
4. C[C@H](O)[C@H](NC(=O)c1ccc(Cl)cc1)c1nc(-c2ccc(OC(F)(F)F)cc2)no1
5. O=C(NC1(c2nc(-c3ccc(OC(F)(F)F)cc3)no2)CCCC1)c1ccc(Cl)cc1

*A*
> 80%
> 80%
> 80%
40 to 80%
< 40%
